Provenance of the data: ChEMBL document CHEMBL5344475

assay: Volume of distribution at steady state in human; conditions: in vivo, read-out: Vdss
measure: Vd (L/kg)
Answers are plain numbers, in L/kg.

Notebook: CCC1=C[C@@H]2CN(C1)Cc1c([nH]c3ccccc13)[C@@](C(=O)OC)(c1cc3c(cc1OC)N(C)[C@H]1[C@@](O)(C(=O)OC)[C@H](OC(C)=O)[C@]4(CC)C=CCN5CC[C@]31[C@@H]54)C2 [VINORELBINE] , Vd read as 25.4

====

assay: Volume of distribution in human at 2.5 mg; format: ADME
measure: Vd (L/kg)
Numbers only, in L/kg.

Notebook: CCN(CC)C(=O)N[C@H]1C=C2c3cccc4[nH]cc(c34)C[C@H]2N(C)C1 [LISURIDE] , Vd read as 1.73
